- ASSAYED_TARGET: Albumin (Homo sapiens, UniProt P02768)
- Sequence (P02768 whole entry): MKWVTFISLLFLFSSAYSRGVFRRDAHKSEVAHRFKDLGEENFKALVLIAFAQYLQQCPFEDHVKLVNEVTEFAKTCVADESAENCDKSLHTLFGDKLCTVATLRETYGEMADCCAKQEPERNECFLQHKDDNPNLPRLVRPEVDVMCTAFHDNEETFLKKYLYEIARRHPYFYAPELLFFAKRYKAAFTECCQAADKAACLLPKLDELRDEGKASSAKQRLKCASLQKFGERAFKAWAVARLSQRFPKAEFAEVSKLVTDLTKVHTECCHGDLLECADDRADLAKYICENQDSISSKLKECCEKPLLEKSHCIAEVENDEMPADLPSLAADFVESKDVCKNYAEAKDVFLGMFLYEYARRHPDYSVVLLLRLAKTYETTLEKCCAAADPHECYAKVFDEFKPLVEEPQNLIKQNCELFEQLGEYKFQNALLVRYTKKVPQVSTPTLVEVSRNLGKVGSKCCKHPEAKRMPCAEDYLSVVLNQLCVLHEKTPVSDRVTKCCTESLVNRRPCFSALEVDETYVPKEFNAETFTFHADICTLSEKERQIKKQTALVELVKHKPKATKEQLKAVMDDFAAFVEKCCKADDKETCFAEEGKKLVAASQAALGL
- TEST_PROTOCOL: Binding affinity to HSA after 30 mins assessed as quenching of intrinsic HSA fluorescence emission by spectrofluorimetric assay
Recorded pKd, one value per entry.
pKd here: minus log base 10 of the concentration, concentration in moles per litre.

O=C1C(N2CCCC2)=NN(c2ccccc2)CN1c1ccccc1Cl = 5.61
O=C1C(N2CCCC2)=NN(c2ccc(Cl)cc2)CN1c1ccccc1Cl = 5.56
CN(C)C1=NN(c2ccc(Cl)cc2)CN(c2ccccc2Cl)C1=O = 4.99

In the following, a different compound is considered.
According to the records, this compound CN(C)C1=NN(c2ccccc2)CN(c2ccccc2Cl)C1=O displays pKd of 5.10

meta.source: ChEMBL document CHEMBL1157585
